This collection of values is drawn from the SangsterLogP compilation.

// NB: equality with 2 counts as F; only logP strictly below is T

MOLECULE	ASSIGNED CATEGORY
O=C(Nc1ccccc1)C1CCCC1	F
O=C(NCCC(F)(F)F)c1ccccc1	T
O=C(Nc1ccccc1)[C@@H]1CC[C@H]1C(F)F	F

Request: Determine if `O=C(Nc1ccccc1)[C@@H]1C[C@@H]1CF` shows logP strictly lower than 2.
Result: T

Request: Please check: logP for `O=C(Nc1ccccc1)[C@@H]1C[C@@H]2C[C@@H]2C1` , strictly under 2 or not?
Result: F

Request: # TODO verify logP < 2 strictly for this molecule: `CCCCC(=O)Nc1ccccc1`
Result: F

Request: logP strictly < 2 for this molecule? O=C(NC1CCCC(F)(F)CC1)c1ccccc1 (centres undefined)
Result: F

Request: Does the reported logP of `CC12CCC(CC1)CN2C(=O)c1ccccc1` stay below 2?
Result: F

Request: Take the molecule `O=C(c1ccccc1)N1CC2CS(=O)(=O)CC(C1)C2(F)F` and say whether its logP is less than 2.
Result: T

Request: Say whether its logP is strictly beneath 2. Entry: O=C(c1ccccc1)N1CCC(F)C1 (centres undefined)
Result: T

Request: Given the entry `O=C(c1ccccc1)N1CC2CC1(C(F)(F)F)C2` , would its reported logP be below 2?
Result: T

Request: Please state whether logP is below 2 for `CCCCNC(=O)c1ccccc1`
Result: F
